Test system: A549 NSCLC
Experiment: NCI tumour cell line growth inhibition, 48 h
quantity.measured: TGI (µM)

>  <molecule>
Nc1nc(N)c(-c2cccc(C(F)(F)F)c2)c(Cc2cccc(C(F)(F)F)c2)n1

>  <sign>
=

>  <recorded.number>
13.3

$$$$
>  <molecule>
C/C(=N\NC(=O)c1ccc(C(C)(C)C)cc1)c1ccc(O)cc1O

>  <sign>
>

>  <recorded.number>
100

$$$$
>  <molecule>
Cc1cc(-c2ccc[nH]2)on1

>  <sign>
>

>  <recorded.number>
100

$$$$
>  <molecule>
CCC1(CC)C(=O)N(C(=O)c2ccc(C)cc2)N(C(=O)c2ccc(C)cc2)C1=O

>  <sign>
>

>  <recorded.number>
75

$$$$
>  <molecule>
O=c1ssc2c1Nc1c(ssc1=O)S2

>  <sign>
=

>  <recorded.number>
41

$$$$
>  <molecule>
Clc1ccc(C2=Nc3ccccc3SC(c3cccs3)C2)cc1 (stereo unspecified)

>  <sign>
=

>  <recorded.number>
36

$$$$
